Data origin: patent US20130310374A1

biological target: mTOR (Homo sapiens, UniProt P42345)
EXPERIMENTAL_READOUT: IC50

# query: IC50 of entry CS(=O)(=O)O.Cn1c(=O)n(-c2ccc(C(C)(C)C#N)nc2)c2c3cc(-c4cnc(N)c(C(F)(F)F)c4)ccc3ncc21 [Example 3a, methanesulfonate] 4.4 nM

---

System: AsPC 1
Assay: Cytotoxicity propidium iodide assay, AsPC 1
Type: cell-based
Details: Homo sapiens, ASPC1; AsPC 1 (pancreatic), 48 hours treatment; read-out: IC50 Values in μM, C4b
Experimental: The assay was designed as in the reference, Anticancer Drugs, 2002, 13, 1-8, the disclosure of which is incorporated herein by reference for the teaching of the assay. Cells from cell lines (ATCC) as mentioned in the table given below were seeded at a density of 3000 cells/well in a white opaque 96-well plate. […] For analysis, the plates were warmed to RT, allowed to thaw and were read in PoleStar fluorimeter with the fluorescence setting. […]
EXPERIMENTAL_READOUT: IC50 (µM)
Respond numerically; units are µM and should not be typed.

# query: IC50 of entry `Cn1c(=O)n(-c2ccc(C(C)(C)C#N)nc2)c2c3cc(-c4cnc5ccccc5c4)ccc3ncc21` 0.09

# query: IC50 of entry `COc1ccc(-n2c(=O)n(C)c3cnc4ccc(-c5cnc(N)c(C(F)(F)F)c5)cc4c32)cn1` 0.1

# query: IC50 of entry `Cn1c(=O)n(-c2ccc(C(C)(C)C#N)nc2)c2c3cc(-c4cnc(N)c(C(F)(F)F)c4)ccc3ncc21` 0.019

# query: IC50 of entry `Cn1c(=O)n(-c2ccc(C(F)(F)F)nc2)c2c3cc(-c4cnc5ccccc5c4)ccc3ncc21` 0.55

# query: IC50 of entry `CC(C)(C#N)c1ccc(-n2c(=O)n(CC#N)c3cnc4ccc(-c5cnc(N)c(C(F)(F)F)c5)cc4c32)cn1` 0.038

# query: IC50 of entry `Cn1c(=O)n(-c2ccc(C#N)nc2)c2c3cc(-c4cccnc4)ccc3ncc21` 0.025

# query: IC50 of entry `Cn1c(=O)n(CCN2CCOCC2)c2c3cc(-c4cccnc4)ccc3ncc21` 4.6

# query: IC50 of entry `Cn1c(=O)n(-c2ccc(C(F)(F)F)nc2)c2c3cc(-c4cnc(N)c(C(F)(F)F)c4)ccc3ncc21` 0.04

# query: IC50 of entry `Cn1c(=O)n(-c2ccc(C(F)(F)F)nc2Cl)c2c3cc(-c4cnc(N)c(C(F)(F)F)c4)ccc3ncc21` 0.042

---

tested on: A2780; assay: Cytotoxicity propidium iodide assay, A2780; type: cell-based; details: Homo sapiens; A2780, 1 μM, 48 hours; read-out: % Inhibition at 1 μM, C1a
I'd appreciate it if you could supply inhibition at 1 µM values for the items below.

# query: inhibition at 1 µM of entry `COc1ccc(-n2c(=O)n(C)c3cnc4ccc(-c5cncc(C(F)(F)F)c5)cc4c32)c(C)n1` 83.4%

# query: inhibition at 1 µM of entry `COc1ccc(-n2c(=O)n(CC#N)c3cnc4ccc(-c5cccnc5)cc4c32)cn1` 38%

# query: inhibition at 1 µM of entry `Cn1c(=O)n(-c2ccc(C(C)(C)C#N)nc2)c2c3cc(-c4cncc5ccccc45)ccc3ncc21` 85.3%

# query: inhibition at 1 µM of entry `Cn1c(=O)n(-c2ccc(C(C)(C)C#N)nc2)c2c3cc(-c4cncc(C(F)(F)F)c4)ccc3ncc21` 89.2%

# query: inhibition at 1 µM of entry CC(C#N)n1c(=O)n(-c2ccc(C#N)nc2)c2c3cc(-c4cccnc4)ccc3ncc21 (stereo not shown) 8%

# query: inhibition at 1 µM of entry CC(C#N)n1c(=O)n(-c2ccc(C#N)nc2)c2c3cc(-c4cnc5ccccc5c4)ccc3ncc21 (stereo not shown) 36%

# query: inhibition at 1 µM of entry `N#CCn1c(=O)n(-c2ccc(C#N)nc2)c2c3cc(-c4cnc5ccccc5c4)ccc3ncc21` 73%
